Values were extracted from patent US11511054B2.

Net Charge values for the compounds below.
Test: Net charge measurement of thermal condensation aerosol (aerosol electrometer, Staccato single dose)
Format: physicochemical
Details: no applied potential to airway housing; mean ± SD
ASSAY_METRIC: Net Charge (pC/mg)

* Cc1nnc2n1-c1ccc(Cl)cc1C(c1ccccc1)=NC2 | −252
* Clc1ccc2c(c1)C(c1ccccc1)=NCc1nncn1-2 | −202
* CN1CCN(CCCN2c3ccccc3Sc3ccc(Cl)cc32)CC1 | 27
* Cc1nnc2n1-c1ccc(Cl)cc1C(c1ccccc1Cl)=NC2 | −158
* CN1C(=O)CC(=O)N(c2ccccc2)c2cc(Cl)ccc21 | 0
* CCN(C(C)=O)c1cccc(-c2ccnc3c(C#N)cnn23)c1 | 7
* CN1C(=O)CN=C(c2ccccc2)c2cc(Cl)ccc21 | −1
